Experiment: A qHTS for Small Molecule Inhibitors of Shiga Toxin; further: 0% is about no effect
Details: Vero cells, Shiga toxin protein synthesis inhibition reporter; at 38.7 µM, stronger effect = higher value
Among all 290,000 compounds or so, about 27,000 (9.3%) were called active. Only a selection was taken, and actives are over-represented in it overall.
Can you tell me inhibition for the items I'm about to list?
Give bare numbers, in %.

{"Compound": "Cc1cc(CNC(=O)C2CCC(=O)N(CCc3ccc(Cl)cc3)C2)no1 (centres undefined)", "inhibition [%]": -7.54}
{"Compound": "COc1cc(C(=O)NC(=S)NCc2ccco2)cc(OC)c1OC", "inhibition [%]": -9.57}
{"Compound": "COc1ccc2c(Cl)c(C(=O)NCc3ccco3)sc2c1", "inhibition [%]": 93.2}
{"Compound": "COc1ccc(/C=C/C(=O)Nc2ccc3c(c2)OCCO3)cc1OC", "inhibition [%]": 35.4}
{"Compound": "O=C(NCc1ccco1)c1sc2cccc(F)c2c1Cl", "inhibition [%]": 80.8}
{"Compound": "COc1cccc(OC)c1C(=O)Nc1ccc2c(c1)n(C)c(=O)n2C", "inhibition [%]": -1.01}

# batch size: 3; output inhibition per entry
1. O=C(NCC1CCCO1)c1cc2c([nH]c3ccccc32)c(-c2ccc(F)cc2)n1 (centres undefined)
2. Cc1ccc(S(=O)(=O)N(C)c2nc3ccccc3n3c(C(C)C)nnc23)cc1
3. O=C(NCCCN1CCCCC1)C1CCCN(c2ncnc3c2nc2n3CCCCC2)C1 (centres undefined)

Response:
-7.75
13.3
4.24

Required: inhibition, one value per compound below.
1. CCOC(=O)c1c(NC(=O)C2CCN(S(=O)(=O)c3ccc(Cl)cc3)CC2)sc2c1CCCC2
2. CCc1c(C)sc(NC(=O)/C=C/c2ccc3c(c2)OCO3)c1C(=O)OC
3. Cc1cc(NC(=O)CSCc2ccccc2C)no1
4. O=C(Nc1ccccc1C(=O)NCC1CCCO1)c1ccccc1F (centres undefined)
5. CCOC(=O)c1cc(OC(=O)c2ccccc2Cl)n(-c2ccccc2)n1
6. COc1ccc(OC)c(CCNC(=O)c2nn(C)c3c2CS(=O)(=O)c2ccccc2-3)c1

Response:
45.1
-7.04
48.6
17.2
35.8
-4.81

# return inhibition for each item in the list
1. COc1ccc(C(=O)Nc2ccccc2C(=O)NCc2ccco2)cc1
2. Cc1nn(C)c(Cl)c1CN1CCC(Oc2ccc(C(=O)N3CCCC3)cc2)CC1
3. Cc1ccc(S(=O)(=O)N(C)CC(=O)NCCc2c[nH]c3ccccc23)cc1
4. Cc1ccc(-c2noc(-c3ccccc3C(=O)NCC3CCCO3)n2)cc1 (centres undefined)
5. CC(=O)N1c2ccc(S(=O)(=O)N3CCC(C(=O)NC4CCCCC4C)CC3)cc2CC1C (centres undefined)
6. CCOC(CNC(=O)C1CCN(S(=O)(=O)c2ccc3nc4c(c(C(=O)O)c3c2)CC(C)CC4)CC1)OCC (centres undefined)
7. CCCCCC1CC(COc2ccccc2)OC1=O (centres undefined)
8. COC(=O)C1(C)NC(c2ccc(C)cc2)C2C(=O)N(c3ccc(F)cc3)C(=O)C21 (centres undefined)

Response:
55.1
-30.4
-2.21
48.4
-11.2
16.6
-10.6
-13.6

Prompt: Recall and state the measured inhibition for Cc1cccc(C(=O)OCC(=O)Nc2ccc(F)cc2)c1 .
Response: 27.4
